# Lookup of reported mass density keyed by entry
test_method_notes: mn = molality of the nth substance listed, in mol/kg
condition_set: 313.15 K; 101 kPa; Liquid; Vibrating tube method; m2 = 0
Could you give me the number in kg/m3? Just the number is fine.

CO [methanol] + [Ca+2].[O-][Cl+3]([O-])([O-])[O-].[O-][Cl+3]([O-])([O-])[O-]
772.203
C[S+](C)[O-] [dimethyl sulfoxide] + [Mg+2].[O-][Cl+3]([O-])([O-])[O-].[O-][Cl+3]([O-])([O-])[O-]
1080.12
CO [methanol] + O=S(=O)([O-])C(F)(F)F.[Na+]
772.195
C[S+](C)[O-] [dimethyl sulfoxide] + [Ba+2].[O-][Cl+3]([O-])([O-])[O-].[O-][Cl+3]([O-])([O-])[O-]
1080.12
CO [methanol] + [Ba+2].[O-][Cl+3]([O-])([O-])[O-].[O-][Cl+3]([O-])([O-])[O-]
772.219
C[S+](C)[O-] [dimethyl sulfoxide] + [Ca+2].[O-][Cl+3]([O-])([O-])[O-].[O-][Cl+3]([O-])([O-])[O-]
1080.12
C[S+](C)[O-] [dimethyl sulfoxide] + [O-][Cl+3]([O-])([O-])[O-].[O-][Cl+3]([O-])([O-])[O-].[Sr+2]
1080.12
CO [methanol] + [O-][Cl+3]([O-])([O-])[O-].[O-][Cl+3]([O-])([O-])[O-].[Sr+2]
772.194

Inquiry: Given CO [methanol] + [Mg+2].[O-][Cl+3]([O-])([O-])[O-].[O-][Cl+3]([O-])([O-])[O-] , state its recorded mass density.
Reply text: 772.206

Inquiry: Param item: C[S+](C)[O-] [dimethyl sulfoxide] + O=S(=O)([O-])C(F)(F)F.[Na+]
Reply text: 1080.11

Inquiry: Param item: C[S+](C)[O-] [dimethyl sulfoxide] + O=S(=O)([O-])C(F)(F)F.O=S(=O)([O-])C(F)(F)F.[Be+2]
Reply text: 1080.11

Inquiry: Param item: CO [methanol] + O=S(=O)([O-])C(F)(F)F.O=S(=O)([O-])C(F)(F)F.[Be+2]
Reply text: 772.216
